All figures here come from ChEMBL document CHEMBL4296182.

# Tested on: Klebsiella pneumoniae
# condition info: Concentration 20 uM; ASSAY_TEST Inhibition of Bacterial Growth; detection method Absorption (OD600); MEDIA CAMHB; plate type 384well; NBS; CORNING #3640; time 18 hr
# Description: Antibacterial activity against Klebsiella pneumoniae MDR ATCC 70063 (CO-ADD:GN_003); MIC in CAMBH media using NBS plates, by OD(600)
Measured potencies and affinities stand elsewhere.
For each entry below, report its Inhibition value.
Write the number in % without appending the unit.

Write down the reported Inhibition of S=C(Sc1ccc(Cl)cc1)Sc1ccc(Cl)cc1 , test system: Klebsiella pneumoniae. 7.47

Write down the reported Inhibition of CCOC(=O)C1C(=O)C(=O)N(C(C)C)C1C(=O)OCC (stereo unspecified) , test system: Klebsiella pneumoniae. 12.15

Write down the reported Inhibition of Cc1cc(-n2cnc3c(O)ncnc32)ccc1N , test system: Klebsiella pneumoniae. 1.65

Write down the reported Inhibition of CN1CN(C)C(c2ccncc2)=C1c1ccncc1 , test system: Klebsiella pneumoniae. 0.75

Write down the reported Inhibition of c1ccc(-n2ncc3cccnc32)cc1 , test system: Klebsiella pneumoniae. 9.31

Write down the reported Inhibition of C=CCOc1ccnc(-c2ccccc2)n1 , test system: Klebsiella pneumoniae. 9.63

Write down the reported Inhibition of Cn1nc(NC(=O)C(F)(F)F)c2ncc(-c3ccc(Cl)cc3)nc21 , test system: Klebsiella pneumoniae. 13.33

Write down the reported Inhibition of Cc1ccc(NC(=O)N2CCN(C)CC2)cc1NC(=O)N1CCN(C)CC1 , test system: Klebsiella pneumoniae. 4.06

Write down the reported Inhibition of O=C(c1ccc(O)cc1)c1ccc(C(=O)c2ccc(O)cc2)cc1 , test system: Klebsiella pneumoniae. 14.45

Write down the reported Inhibition of CN1CCC=C(C(=O)N2c3ccccc3Sc3ccc(Cl)cc32)C1.O=C(O)CCC(=O)O , test system: Klebsiella pneumoniae. -0.76

Write down the reported Inhibition of CCOC(=O)N1C/C(=C\c2ccccc2)C(=O)/C(=C/c2ccccc2)C1 , test system: Klebsiella pneumoniae. 12.83

Write down the reported Inhibition of COc1cc2c(cc1OC)C(/C=C/c1ccco1)=NCC2.O=S(=O)(O)O , test system: Klebsiella pneumoniae. 11.02

Write down the reported Inhibition of C=CCOCCN(CC)CC , test system: Klebsiella pneumoniae. 7.56

Write down the reported Inhibition of CCCNC(=O)c1ccc(S(N)(=O)=O)cc1 , test system: Klebsiella pneumoniae. 13.6

Write down the reported Inhibition of CC1=C(c2ccccc2)C=NNCC1=O , test system: Klebsiella pneumoniae. 15.54

Write down the reported Inhibition of CC1(C)CC[C@]2(C(=O)n3ccnc3)CC[C@]3(C)[C@H](C(=O)C=C4[C@@]5(C)C=C(C#N)C(=O)C(C)(C)[C@@H]5CC[C@]43C)[C@@H]2C1 , test system: Klebsiella pneumoniae. 10.75

Write down the reported Inhibition of Cc1cc(NC(=O)OC(C)C)ccc1-c1ccc(NC(=O)OC(C)C)cc1C , test system: Klebsiella pneumoniae. 2.57

Write down the reported Inhibition of O=C(O)c1ccc(N2CCCCC2)cc1O , test system: Klebsiella pneumoniae. 12.65

Write down the reported Inhibition of CC(=O)O[C@H]1CC[C@@]2(C)[C@@H](CC[C@@H]3[C@@H]2CC(=O)[C@@]2(C)[C@H]3C[C@@H]3CC(C)=CC(=O)[C@@H]32)C1 , test system: Klebsiella pneumoniae. 18.64

Write down the reported Inhibition of O=C1c2ccccc2C(=O)N1c1nc[nH]n1 , test system: Klebsiella pneumoniae. 0.02

Write down the reported Inhibition of COc1cc2c(O)cc(C(=O)O)c(-c3cc(OC)c(OC)c(OC)c3)c2cc1OC , test system: Klebsiella pneumoniae. 8.82

---

# Tested on: Acinetobacter baumannii
# assay info: Antibacterial activity against Acinetobacter baumannii ATCC 19606 (CO-ADD:GN_034); MIC in CAMBH media using NBS plates, by Resazurin F(560/590)
# Assay type: functional
# condition info: Concentration 20 uM, ASSAY_TEST Inhibition of Bacterial Growth, detection method Resazurin, Fluorescence (ex560/em590), MEDIA CAMHB, plate type 384well, CORNING #3640, time 18 hr
experimental readout: Inhibition (%)
Write the number in % without appending the unit.

Sample CCOC(=O)C1(C#N)C(=O)CS/C1=N/c1ccccc1Cl (stereo not drawn) — what was its Inhibition? 6.45

Sample C=CCN1CCN(c2ccncc2S(=O)(=O)N2CCN(C)CC2)CC1 — what was its Inhibition? 5.76

Sample CC(C)COC(=O)NC1c2ccccc2Oc2ccccc21 — what was its Inhibition? -2.15

Sample Nc1nc(N)c(/C=N/c2ccc(Br)cc2)c(Nc2ccc(Br)cc2)n1 — what was its Inhibition? -11.54

Sample O=C(OCC1CCC=CO1)C1CCC=CO1 (stereo not drawn) — what was its Inhibition? -10.56

Sample Sc1ncnc2c1cnn2-c1ccccc1 — what was its Inhibition? -10.1

Sample Oc1ccc(Nc2ccc3ccccc3c2)cc1 — what was its Inhibition? -10.62

Sample C1CCC(NC2=NCCO2)CC1 — what was its Inhibition? -18.87

Sample CCC1=[N+]([O-])[N+]([O-])=C(c2ccccc2)/C1=N/O — what was its Inhibition? 10.01

Sample CSc1nsc(NN)n1 — what was its Inhibition? -22.35

Sample O=C(O)CCNC1CCCCC1 — what was its Inhibition? -7.34

Sample Clc1ccc(-c2nc(-c3cc4cc(Cl)ccc4o3)cs2)cc1 — what was its Inhibition? 8.53

Sample O=C1C(Cl)=C(O)C2(Cl)C(Cl)=C(Cl)C12Cl (stereo not drawn) — what was its Inhibition? 13.34

Sample O=C(O)c1nn(-c2ccccc2-c2nnc(O)nc2O)c(=O)[nH]c1=O — what was its Inhibition? 10.46

Sample COc1ccc(Nc2cc(C)nc(N)n2)cc1 — what was its Inhibition? -5.29

Sample COC(=O)Cc1[nH]c(S)nc1C(=O)OC — what was its Inhibition? 1.23

Sample CO/N=C1/C=C(C)C(=O)C(C)=C1C — what was its Inhibition? -1.27

Sample Cn1nc(NC(=O)C(F)(F)F)c2ncc(-c3ccc(Cl)cc3)nc21 — what was its Inhibition? 13.75

Sample O=C(Nc1cccc2ccccc12)c1cc2c(cc1Br)OCO2 — what was its Inhibition? 3.29

Sample CCOC(=O)c1cc[nH]c1CC(=O)NC — what was its Inhibition? 12.41

Sample Cn1nc(N)c2ncc(C(Cl)(Cl)Cl)nc21 — what was its Inhibition? -8.78

Sample OC(COc1cccc2ccccc12)CN1CCN(c2ccccc2Cl)CC1 (stereo not drawn) — what was its Inhibition? 8.91

Sample OCc1ncc(-c2ccccc2)s1 — what was its Inhibition? -9.91

Sample CSc1nc(N)c(C(=O)Nc2ccc([N+](=O)[O-])cc2)s1 — what was its Inhibition? 5.85

Sample Cc1cccc(NC2=C(C#N)C(=O)NC3(CCCC3)S2)c1 — what was its Inhibition? -3

Sample C#CCSc1nc(-c2ccco2)n[nH]1 — what was its Inhibition? 16.42

Sample CCOC(=O)CSc1nc2nc(Cl)c(Cl)[nH]c-2n1 — what was its Inhibition? 6.84

Sample O=CN/C=C\c1cc(O)ccc1O — what was its Inhibition? -7.5

Sample Cc1cc(C)c(C#N)c(Sc2nc(C)c([N+](=O)[O-])c(C)c2C#N)n1 — what was its Inhibition? 4.2

Sample Cn1ncc2c(Nc3ccc(O)cc3)nc(Cl)nc21 — what was its Inhibition? 8.39

Sample COC(=O)c1cncc(C)c1 — what was its Inhibition? -13.2

Sample CCCCCC(=O)C(=O)c1ccc(O)cc1O — what was its Inhibition? 8.8

Sample CS(=O)(=O)O.Cc1cc2c(cc1[N+](=O)[O-])NC(CNC(C)C)CC2 (stereo not drawn) — what was its Inhibition? 12.49

Sample COC(=O)C1=C(C(=O)OC)[C@@H]2CCC[C@H]1[C@H]1[C@@H]2N=NN1c1ccccc1 — what was its Inhibition? -12.99

Sample C#Cc1cccc(NC(=O)c2ccc(Cl)cc2Cl)c1 — what was its Inhibition? -16.25

Sample Nc1ccc(OC(=O)Nc2ccc(O)cc2)cc1 — what was its Inhibition? 1

Sample C=CCSc1n[nH]c(-c2cccs2)n1 — what was its Inhibition? 11.99

Sample CN1CCC(=C(c2ccc(Cl)cc2)c2ccccn2)CC1.O=C(O)/C=C\C(=O)O [CYCLIRAMINE MALEATE] — what was its Inhibition? -10.18

---

# System: Acinetobacter baumannii
# assay info: Antibacterial activity against Acinetobacter baumannii ATCC 19606 (CO-ADD:GN_034); MIC in CAMBH media using NBS plates, by Resazurin F(560/590)
# Assay type: functional
# condition info: Concentration 20 uM, ASSAY_TEST Inhibition of Bacterial Growth, detection method Resazurin, Fluorescence (ex560/em590), MEDIA CAMHB, plate type 384well, CORNING #3640, time 18 hr
For each entry below, report its Inhibition value.
Write the number in % without appending the unit.

Sample Cc1nc2nc(C(F)(F)F)[nH]c2nc1C — what was its Inhibition? 9.55

Sample Cn1c(=O)c2c(ncn2CCOC(=O)C(C)(C)Oc2ccc(Cl)cc2)n(C)c1=O [THEOFIBRATE] — what was its Inhibition? -11.51

Sample Cc1ccc(Nc2ccc(N)cc2S(=O)(=O)O)cc1 — what was its Inhibition? 8.99

Sample O=C(O)c1ccc2c(c1Sc1ccccc1)C(=O)c1ccccc1C2=O — what was its Inhibition? 11.62

Sample CCCCOc1nc2c(c(=O)n(C)c(=O)n2C)n1C — what was its Inhibition? 14.19

Sample O=C1c2ccccc2C(=O)c2[nH]cnc21 — what was its Inhibition? -6.06

Sample CS(=O)(=O)O.OC(c1cc(C(F)(F)F)nc2c(Cl)cc(Cl)cc12)C1CCCCN1 (configuration not stated) — what was its Inhibition? 6.66

Sample Cc1ccc(Nc2c(O)ncnc2O)cc1C — what was its Inhibition? -4.13

Sample CC1=CC(C)(C(Cl)(Cl)Cl)C(C)=C/C1=N/O (configuration not stated) — what was its Inhibition? -20.29

Sample Nc1c(Cl)ncnc1NCCO — what was its Inhibition? -7.14

Sample CCOc1ccc(/C=C2\CCc3ccccc3C2=O)cc1 — what was its Inhibition? -2.84

Sample COc1ccc(-c2cc(-c3ccccc3)c(-c3ccccc3)nn2)cc1 — what was its Inhibition? 8.32

Sample NC(=O)c1ccccc1NC(=O)c1ccccc1Cl — what was its Inhibition? -12.19

Sample Cc1ccc(C)c(-n2c(-c3ccc(Br)cc3)cs/c2=N\C(=O)c2ccccc2F)c1 — what was its Inhibition? -6.11

Sample O=C(Nc1csnn1)c1csnn1 — what was its Inhibition? -6.51

Sample N#CC1C=Cc2c(ccc3ccccc23)N1C(=O)c1ccccc1 (configuration not stated) — what was its Inhibition? -9.2

Sample CCCCNCC1CCCO1 (configuration not stated) — what was its Inhibition? -3.42

Sample CCOC(=O)/C=C/c1ccc(C(=O)OCC)[nH]1 — what was its Inhibition? 10.2

Sample CCOC(=O)Nc1cc2c(c(N)n1)N=C(c1ccccc1)CN2 — what was its Inhibition? 2.33

Sample O=C(COc1cc(Cl)c(Cl)cc1Cl)Nc1ccc([N+](=O)[O-])cc1Cl — what was its Inhibition? -3.59

Sample Nc1ccccc1C(=O)Nc1ccc(Cl)cc1Cl — what was its Inhibition? -19.7

Sample O=C(O)Cc1ccc(/N=N/c2c(O)c(C(=O)O)cc3ccccc23)cc1 — what was its Inhibition? 6.89

Sample Cn1c2c(c(=O)n(C)c1=O)NC1(N2)C(=O)Nc2ccccc21 (configuration not stated) — what was its Inhibition? -15.14

Sample O=[N+]([O-])c1nc[nH]c1/C=C\c1ccccc1 — what was its Inhibition? -12.82

Sample Cc1ccc2c(c1)sc1nncn12 — what was its Inhibition? -15.79

Sample O=C(Nc1cccnc1)c1cccc([N+](=O)[O-])c1 — what was its Inhibition? 4.9

Sample Nc1nc(O)c2nn(-c3ccccc3)nc2n1 — what was its Inhibition? -13.43

Sample O=C(/C=C/c1cccnc1)/C=C/c1cccnc1 — what was its Inhibition? 4.07

Sample O=C(Nc1cccc(Cl)c1)Nn1cnnc1 — what was its Inhibition? 8.62

Sample COC(=O)c1ccc(C(=O)OC)c(O)n1 — what was its Inhibition? 9.07

Sample OC(c1ccccc1)(c1ccccc1)c1nccn1-c1ccccc1 — what was its Inhibition? -3.61

Sample CSc1cccc(NC(=O)Nc2nc3c(C)cccc3s2)c1 — what was its Inhibition? 2.69
